assay: NCI Yeast Anticancer Drug Screen. Data for the sgs1 strain (AID 173);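 further: 0% = growth of vehicle-only control cultures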; conditions: S. cerevisiae sgs1 mutant, at 11.0 µM
This is part of a sample that, as a whole, favours compounds with a hit. Of some 79,000 tested, about 15% had one in any assay. Active and inactive are the calls of the source. No stated cut-off is given here; in the data, active means growth inhibition above about 70%; inactive means the rest.
Labels: T for active, F for inactive

N=C1N=Nc2nc(C3(c4nc5n(c4O)C(=N)N=N5)Cc4ccccc4C3=O)c(O)n21 (stereo not drawn) ... F
C/C=C/SC(=Nc1ccccc1)Nc1ccccc1 ... F
Oc1ccc(O)c(Cc2ccccc2)c1 ... T
c1ccc(CCN2CCc3ccccc3C2)cc1 ... F
COc1ccc(C(=O)c2ccccc2C(=O)c2ccccc2OC)cc1 ... F
OCC(CO)C(c1cccc2ccccc12)c1cccc2ccccc12 ... T
Nc1ncnc2c1ncn2C1OC(CO)CC1O (stereo not drawn) ... F
CSc1nnc(SC)nn1 ... F
N#CC(C#N)=NNc1ccc(S(=O)(=O)O)cc1 ... F
O=[N+]([O-])c1cccc2nc3ccccc3c(NCCCn3ccnc3[N+](=O)[O-])c12 ... T
COC(=O)NC1C(C)OC(OC2C/C=C(/C)C3C=CC4C(OC5CC(OC6CC(O)C(OC7CC(O)C(OC)C(C)O7)C(C)O6)C(O)C(C)O5)C(C)CC(C)C4C3(C)/C(O)=C3\C(=O)OC4(CC(C)C(CO)=CC4/C=C\2C)C3=O)CC1(C)[N+](=O)[O-] (stereo not drawn) ... F
COC(=O)/C=C(/CC(=O)OC)C(=O)OC ... F
CN(C)CCNC(=O)c1cccc2cc([N+](=O)[O-])ccc12 ... F
CN(C)CCOC1(Cc2ccc(Cl)cc2Cl)CCC(C(C)(C)C)CC1 (stereo not drawn) ... T
CCCC(=O)Oc1ccc(/C=N/NC(N)=S)nc1 ... F
CCOC1(c2cccc([N+](=O)[O-])c2)c2ccccc2Oc2ccccc21 ... F
CCc1nc2ccc(NCCN(C)C)c3c(=O)c4ccccc4n1c23 ... F
COC(C(O)CO)C(O)C(O)C(=O)NNc1ccccc1 (stereo not drawn) ... F

---

experiment: NCI Yeast Anticancer Drug Screen. Data for the bub3 strain (AID 167); conditions: S. cerevisiae bub3 mutant strain, at 11.0 µM, hits give high values
Compounds without any hit were thinned out: in the full panel of roughly 79,000, 15% have a hit.
Overview of recorded growth inhibition for various molecules
property.name: growth inhibition (%)

NC(=S)NC(=S)Nc1ccccc1 ... -14
Cn1c(-c2ccc(/C=N\N3CCN(/N=C/c4ccc(-c5c[n+]6ccccc6n5C)cc4)CC3)cc2)c[n+]2ccccc12 ... -2
COc1ccc(C/C=N/Nc2ccc([N+](=O)[O-])cc2)cc1OC ... 8
O=C(CC(C(=O)O)N1CCOCC1)c1ccccc1 (stereo not given) ... -8
CN(CCN(C)Cc1ccccc1)Cc1ccccc1 ... -13
COc1ccc(/C=C2\NC(=S)N(/C=C3\C(=O)Oc4ccccc4C3=O)C2=O)cc1 ... -2
CCOC(=N)c1ccc(O)c(OC)c1 ... 48
c1ccc2[nH]c(-c3cscn3)nc2c1 ... 12
CCOc1ccc(NC(=O)C2=C(C)NC(C)=C(C(=O)Nc3ccc(OCC)cc3)C2c2cccc([N+](=O)[O-])c2)cc1 ... 1
CN(C)c1ccc2c(SCC(=O)OCC(=O)[C@@]3(O)CC[C@H]4[C@@H]5CCC6=CC(=O)C=C[C@]6(C)[C@H]5C(=O)C[C@@]43C)c3ccc(N(C)C)cc3nc2c1 ... 55
